Each recorded value in this set is attributed to PubChem BioAssay (NCI).

Experiment: NCI Yeast Anticancer Drug Screen. Data for the mlh1 rad18 strain (AID 175)
Details: S. cerevisiae mlh1 rad18 strain growth inhibition; at 50.0 µM (retest, dose inferred, filed as 5.0); stronger effect = higher value
About 79,000 compounds went through this panel and 15% of them were active in at least one assay; those are over-represented in the sample as a whole.
recorded metric: growth inhibition (%)
Give just the numeric value; % need not be written.

Query: Please look up its growth inhibition: `Cc1cc(Cc2ccc(Cl)cc2)ccc1O`
Result: 99

Query: Please look up its growth inhibition: `O=C1c2ccccc2CN1Cc1ccc(Cl)c(Cl)c1`
Result: 91

Query: Please look up its growth inhibition: O=C(OC1CC2CC1C1CC=CC21)c1ccccc1 (stereo not drawn)
Result: -3

Query: Please look up its growth inhibition: `COc1ccc(/C=C2/C(=O)ON=C2C)cc1OC`
Result: 61

Query: Please look up its growth inhibition: CC1C[C@]2(C)C(=S)Nc3ccccc3[C@@H]2Nc2ccccc21 (stereo partly drawn)
Result: 58

Query: Please look up its growth inhibition: `COc1ccc(CSC(=S)Nc2cc(C)c(C)cc2[N+](=O)[O-])cc1`
Result: 95

Query: Please look up its growth inhibition: `Clc1ccc(CN2COc3c(cc(Cl)c4cccnc34)C2)cc1Cl`
Result: 96

Query: Please look up its growth inhibition: `CCCCN1C(=O)C[C@H]2[C@@H]3CCc4cc(OCCN5CCCC5)ccc4[C@H]3CC[C@]2(C)C1=O`
Result: 78

###

Test: NCI Yeast Anticancer Drug Screen. Data for the sgs1 mgt1 strain (AID 161);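 note: 0% = growth of cultures given vehicle only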
Details: S. cerevisiae sgs1 mgt1 strain, at 50.0 µM (retest, dose inferred, filed as 5.0), stronger effect = higher value
Compounds without any hit were thinned out: in the full panel of roughly 79,000, 15% have a hit.
Assign class by growth inhibition: not lower than 50% means t; lower than 50% means f.

Query: Is growth inhibition for `CCNC1(C2c3ccccc3-c3ccccc32)c2ccccc2-c2ccccc21` at or above 50%?
Result: t

Query: Is growth inhibition for `COC(=O)c1ccc2ccccc2c1C(=O)c1ccc(F)cc1` at or above 50%?
Result: t

Query: Is growth inhibition for `O=C(C=P(c1ccccc1)(c1ccccc1)c1ccccc1)c1ccccc1-c1ccccc1C(=O)C=P(c1ccccc1)(c1ccccc1)c1ccccc1` at or above 50%?
Result: t

Query: Is growth inhibition for `C/C(=N/NC(=S)Nc1ccccc1Cl)c1ccccn1` at or above 50%?
Result: f

Query: Is growth inhibition for `COc1ccc2c(c1)Cc1ccccc1C2=O` at or above 50%?
Result: f

Query: Is growth inhibition for `NC(=O)c1ccccc1OC(=O)NCCO` at or above 50%?
Result: f

Query: Is growth inhibition for `CCCCCCCCCCCCCC(=O)NO` at or above 50%?
Result: t

Query: Is growth inhibition for CCCCCCCCCCCCOC(=O)CC1CC(C(C)=O)C1(C)C (stereo not drawn) at or above 50%?
Result: f

Query: Is growth inhibition for NC(CCl)=NCC1C2CC3CC(C2)CC1C3 (stereo not drawn) at or above 50%?
Result: t

Query: Is growth inhibition for C/C(=N\OS(=O)(=O)O)SC1OC(CO)C(O)C(O)C1O (stereo not drawn) at or above 50%?
Result: f

Query: Is growth inhibition for `CCCC(c1ccc(O)cc1)c1ccc(O)cc1` at or above 50%?
Result: t

Query: Is growth inhibition for COC(=O)[C@@]12OC[C@]34[C@H]([C@@H](O)[C@@H]1O)[C@@]1(C)CC(=O)C(O)=C(C)[C@@H]1C[C@H]3OC(=O)[C@H](OC(=O)C(Cc1ccccc1)NC(=O)OC(C)(C)C)[C@@H]24 (stereo partly drawn) at or above 50%?
Result: t

Query: Is growth inhibition for `CC[N-]c1nncs1.CC[N-]c1nncs1.CC[N-]c1nncs1.CC[N-]c1nncs1.[Cl][Rh][Cl]` at or above 50%?
Result: t

Query: Is growth inhibition for `c1ccc(-c2cc(CN3CCOCC3)c(-c3ccccc3)o2)cc1` at or above 50%?
Result: t

Query: Is growth inhibition for `CCC(=O)NC1=C(Cl)C(=O)c2ccccc2C1=O` at or above 50%?
Result: t

Query: Is growth inhibition for `COc1cc(CSc2ccc(O)cc2)cc(OC)c1OC` at or above 50%?
Result: f

Query: Is growth inhibition for `CCN1CC(=O)N(C)C1=S` at or above 50%?
Result: f

Query: Is growth inhibition for `C/C(=N\NC(=S)N1CCCC1)c1nc2ncccc2[nH]1` at or above 50%?
Result: t

Query: Is growth inhibition for `O=C(Nc1ccccc1)C(F)(F)C(F)(F)C(F)(F)F` at or above 50%?
Result: f

Query: Is growth inhibition for `COc1ccc(/C=C(\C(=O)c2ccc(O)cc2)c2ccccc2)cc1OC` at or above 50%?
Result: t

Query: Is growth inhibition for `N#CCCN(CCC#N)Cc1c(O)c(O)c(CN(CCC#N)CCC#N)c2ccccc12` at or above 50%?
Result: f

Query: Is growth inhibition for CC(=O)OC1CCCCCCCCCCC12OCCO2 (stereo not drawn) at or above 50%?
Result: t

Query: Is growth inhibition for `Brc1cc2c(c(Br)c1Br)C(Br)(Br)C(c1ccccc1)=N2` at or above 50%?
Result: t
